Recorded values, source PubChem BioAssay AID1851.

target: Cytochrome P450 3A4 (Homo sapiens) (UniProt P08684); assay: Cytochrome panel assay with activity outcomes; conditions: recombinant CYP, pro-luciferin dealkylation, luminescence, p450-cyp3a4; series mostly up to 57.1 µM
Sequence (P08684 whole entry, looked up): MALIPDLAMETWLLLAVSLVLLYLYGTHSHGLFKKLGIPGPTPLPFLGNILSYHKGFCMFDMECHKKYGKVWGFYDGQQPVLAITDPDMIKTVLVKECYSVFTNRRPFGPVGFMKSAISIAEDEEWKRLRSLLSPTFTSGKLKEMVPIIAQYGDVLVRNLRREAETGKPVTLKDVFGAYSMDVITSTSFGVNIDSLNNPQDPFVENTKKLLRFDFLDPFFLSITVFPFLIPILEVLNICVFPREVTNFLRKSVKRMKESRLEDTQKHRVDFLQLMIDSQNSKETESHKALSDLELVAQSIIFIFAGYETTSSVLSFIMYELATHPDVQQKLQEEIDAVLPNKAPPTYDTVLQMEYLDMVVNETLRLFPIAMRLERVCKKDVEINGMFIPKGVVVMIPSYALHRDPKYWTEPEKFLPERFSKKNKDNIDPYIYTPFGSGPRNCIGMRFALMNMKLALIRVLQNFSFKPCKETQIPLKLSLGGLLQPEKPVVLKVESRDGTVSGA
About 5,100 (32%) of roughly 16,000 compounds were called active. Not shown: some 25% with an inconclusive outcome. Calls come from the whole dose curve; as a rule, active = well fitted curve in the direction sought with a large enough effect; inconclusive = small, poorly fitted or top-dose-only effect, or effect the other way; inactive = no such curve, though single readings can be large or run the other way. The list shows a part of the results.
Please answer using one outcome listed in active, inactive

### Prompt Dear all, I need the recorded test outcome for CCn1nnnc1SCC(=O)NC1CCCC1 , thank you.
### Response inactive

### Prompt Dear all, I need the recorded test outcome for CC(C)(C)c1[nH]nc2c1C(c1ccc(OC(=O)c3ccco3)cc1)C(C#N)=C(N)O2 (stereo unspecified) , thank you.
### Response active

### Prompt Dear all, I need the recorded test outcome for CC1CCN(C(NC(=O)c2ccco2)C(=O)c2ccccc2)CC1 (stereo unspecified) , thank you.
### Response inactive

### Prompt Dear all, I need the recorded test outcome for CCn1c(SCC(=O)Nc2ccc3c(c2)OCCO3)nc2c(c1=O)SC(C)C2 (stereo unspecified) , thank you.
### Response active

### Prompt Dear all, I need the recorded test outcome for CCCC[C@@H]1C[C@H]1C(NC(=O)c1ccco1)c1ccc(C(=O)OC)cc1 (stereo partly specified) , thank you.
### Response active

### Prompt Dear all, I need the recorded test outcome for CCCC[C@@H]1C[C@H]1C(NC(=O)c1ccco1)c1ccc(Cl)cc1 (stereo partly specified) , thank you.
### Response active
